Provenance of the data: ChEMBL document CHEMBL4190350

System: HT-29
assay: Antitumor activity against human HT-29 cells assessed as inhibition of cell viability incubated for 48 hrs by MTT assay
Format: functional, cell-based
run.conditions: HT-29, 48 h
measured.quantity: pIC50
// pIC50: -log10(molar conc.)

The measured pIC50 associated with Nc1nc2sc3c(c2c(=O)n1N)CCCCC3 reads 4.29

The measured pIC50 associated with O=c1[nH]cc(F)c(=O)[nH]1 reads 5.34

The measured pIC50 associated with NNC(=O)c1c(N/N=C2/C(=O)NN=C2N)sc2c1CCCCC2 reads 4.39

The measured pIC50 associated with NNC(=O)c1c(NN=C2C(=O)NNC2=O)sc2c1CCCCC2 reads 4.31

The measured pIC50 associated with CCOC(=O)/C(=N/Nc1sc2c(c1C(=O)OCC)CCC2)C(C)=O reads 5.06

The measured pIC50 associated with CCOC(=O)c1c(NN=C(C(C)=O)C(C)=O)sc2c1CCCCC2 reads 4.27

The measured pIC50 associated with CCOC(=O)c1c(N/N=C(\C(C)=O)C(=O)c2ccccc2)sc2c1CCCCC2 reads 4.02

The measured pIC50 associated with CC(=O)C1(C(=O)c2ccccc2)N=Nc2sc3c(c2C1=O)CCCCC3 (stereo unspecified) reads 5.01

The measured pIC50 associated with CCOC(=O)C(=NNc1sc2c(c1C(=O)OCC)CCCCC2)C(=O)OCC reads 4.06

The measured pIC50 associated with CCOC(=O)/C(=N/Nc1sc2c(c1C(=O)OCC)CCCCC2)C(C)=O reads 5.35

The measured pIC50 associated with NNC(=O)c1c(NN=C2C(N)=NN=C2N)sc2c1CCCCC2 reads 4.52

----------
Hi there, I'd appreciate the recorded diameter of the inhibition zone (DIZ) for every entry that follows.
System: Escherichia coli
assay: Antimicrobial activity against Escherichia coli incubated for 24 hrs by disc diffusion assay; also: test concentration or dose not given here
Format: functional
Hi! Could you send only the number? It should be in mm, unit omitted.

Fill in: Escherichia coli diameter of the inhibition zone (DIZ) for CCOC(=O)c1c(-n2cnnn2)sc2c1CCCCC2 = 6

Fill in: Escherichia coli diameter of the inhibition zone (DIZ) for CCOC(=O)c1c(NN=C(C#N)C#N)sc2c1CCCCC2 = 7

Fill in: Escherichia coli diameter of the inhibition zone (DIZ) for CCOC(=O)C1(C(C)=O)N=Nc2sc3c(c2C1=O)CCCCC3 (stereo not drawn) = 17

Fill in: Escherichia coli diameter of the inhibition zone (DIZ) for CCOC(=O)/C(=N/Nc1sc2c(c1C(=O)OCC)CCCCC2)C(C)=O = 22

Fill in: Escherichia coli diameter of the inhibition zone (DIZ) for CCOC(=O)/C(=N/Nc1sc2c(c1C(=O)OCC)CCC2)C(C)=O = 4

Fill in: Escherichia coli diameter of the inhibition zone (DIZ) for CCOC(=O)c1c(N/N=C(\C(C)=O)C(=O)c2ccccc2)sc2c1CCC2 = 7

Fill in: Escherichia coli diameter of the inhibition zone (DIZ) for Nc1nc2sc3c(c2c(=O)n1N)CCCCC3 = 11

Fill in: Escherichia coli diameter of the inhibition zone (DIZ) for CCOC(=O)/C(C#N)=N/Nc1sc2c(c1C(=O)OCC)CCC2 = 7

Fill in: Escherichia coli diameter of the inhibition zone (DIZ) for CCOC(=O)c1c(NN=C(C(C)=O)C(C)=O)sc2c1CCC2 = 21

Fill in: Escherichia coli diameter of the inhibition zone (DIZ) for CC(=O)c1c(O)c2c3c(sc2[nH]c1=O)CCCCC3 = 12

Fill in: Escherichia coli diameter of the inhibition zone (DIZ) for CCOC(=O)c1c(NN=C(C(C)=O)C(C)=O)sc2c1CCCCC2 = 6
